- Test description: Metabolic Stability Study, liver microsome incubation (mouse)
- Assay type: in vitro ADME
- Measurement context: mouse liver microsomes 0.5 mg/mL, 1 μM compound, NADPH; NA^# = very stable, beyond the detection limits; read-out: T1/2 (min) mouse
Measurement kind: half-life at 1 μM (min)

Compound: COc1ccc(CN2CCN(C3CC4(CCN(c5ccc(C(=O)NS(=O)(=O)c6ccc(NC[C@H]7CC[C@](C)(O)CC7)c([N+](=O)[O-])c6)c(Oc6cnc7[nH]ccc7c6)c5)CC4)C3)C(c3ccccc3C(C)C)C2)cc1 (stereo partly drawn) [Example 19]
Measurement kind: half-life at 1 μM
Display unit: min
Obs value: 292

Compound: COc1cc(CN2CCN(C3CC4(C3)CN(c3ccc(C(=O)NS(=O)(=O)c5ccc(NC[C@H]6CC[C@](C)(O)CC6)c([N+](=O)[O-])c5)c(Oc5cnc6[nH]cc(F)c6c5)c3)C4)[C@H](c3ccccc3C(C)C)C2)ccc1C [Example 274]
Measurement kind: half-life at 1 μM
Display unit: min
Obs value: 289

Compound: CC(C)c1ccccc1C1CC(Cc2ccccc2)CCN1C1CC2(CCN(c3ccc(C(=O)NS(=O)(=O)c4ccc(NC[C@H]5CC[C@](C)(O)CC5)c([N+](=O)[O-])c4)c(Oc4cnc5[nH]ccc5c4)c3)CC2)C1 (stereo partly drawn) [Example 67]
Measurement kind: half-life at 1 μM
Display unit: min
Obs value: 272

Compound: COc1ccc(CN2CCN(C3CC4(C3)CN(c3ccc(C(=O)NS(=O)(=O)c5ccc(NC[C@H]6CC[C@](C)(O)CC6)c([N+](=O)[O-])c5)c(Oc5cnc6[nH]ccc6c5)c3)C4)[C@H](c3ccccc3C(C)C)C2)cc1 [Example 147]
Measurement kind: half-life at 1 μM
Display unit: min
Obs value: 301

Compound: COc1ccc(CN2CCN(C3CC4(CCN(c5ccc(C(=O)NS(=O)(=O)c6ccc(NC[C@H]7CC[C@](C)(O)CC7)c([N+](=O)[O-])c6)c(Oc6cnc7[nH]ccc7c6)c5)CC4)C3)[C@H](c3ccccc3C(C)C)C2)cc1OC [Example 81a]
Measurement kind: half-life at 1 μM
Display unit: min
Obs value: 219

Compound: [2H]C([2H])([2H])Oc1ccc(CN2CCN(C3CC4(CCN(c5ccc(C(=O)NS(=O)(=O)c6ccc(NC[C@H]7CC[C@](C)(O)CC7)c([N+](=O)[O-])c6)c(Oc6cnc7[nH]cc(F)c7c6)c5)CC4)C3)[C@H](c3ccccc3C(C)C)C2)cc1OC([2H])([2H])[2H] [Example 198]
Measurement kind: half-life at 1 μM
Display unit: min
Obs value: 222

Compound: CC(C)c1ccccc1C1CN(Cc2cc(F)cc(F)c2)CCN1C1CC2(CCN(c3ccc(C(=O)NS(=O)(=O)c4ccc(NC[C@H]5CC[C@](C)(O)CC5)c([N+](=O)[O-])c4)c(Oc4cnc5[nH]ccc5c4)c3)CC2)C1 (stereo partly drawn) [Example 51]
Measurement kind: half-life at 1 μM
Display unit: min
Obs value: 306

Compound: COc1ccc(CN2CCN(C3CC4(C3)CN(c3ccc(C(=O)NS(=O)(=O)c5ccc(NC[C@H]6CC[C@](C)(O)CC6)c([N+](=O)[O-])c5)c(Oc5cnc6[nH]cc(F)c6c5)c3)C4)[C@H](c3ccccc3C(C)C)C2)cc1OC [Example 141a]
Measurement kind: half-life at 1 μM
Display unit: min
Obs value: 18100

Compound: COc1ccc(CN2CCN(C3CC4(CCN(c5ccc(C(=O)NS(=O)(=O)c6ccc(NC[C@H]7CC[C@](C)(O)CC7)c([N+](=O)[O-])c6)c(Oc6cnc7[nH]ccc7c6)c5)CC4)C3)[C@H](c3ccccc3C(C)C)C2)cc1 [Example 19a]
Measurement kind: half-life at 1 μM
Display unit: min
Obs value: 346

Compound: CC(C)c1ccccc1C1CN(Cc2ccc(F)cc2)CCN1C1CC2(CCN(c3ccc(C(=O)NS(=O)(=O)c4ccc(NC[C@H]5CC[C@](C)(O)CC5)c([N+](=O)[O-])c4)c(Oc4cnc5[nH]ccc5c4)c3)CC2)C1 (stereo partly drawn) [Example 28]
Measurement kind: half-life at 1 μM
Display unit: min
Obs value: 200

Compound: COc1cc(CN2CCN(C3CC4(CCN(c5ccc(C(=O)NS(=O)(=O)c6ccc(NC[C@H]7CC[C@](C)(O)CC7)c([N+](=O)[O-])c6)c(Oc6cnc7[nH]ccc7c6)c5)CC4)C3)[C@H](c3ccccc3C(C)C)C2)ccc1C1CC1 [Example 257]
Measurement kind: half-life at 1 μM
Display unit: min
Obs value: 254

Compound: COc1ccc(CN2CCN(C3CC4(CCN(c5ccc(C(=O)NS(=O)(=O)c6ccc(NC[C@H]7CC[C@](C)(O)CC7)c([N+](=O)[O-])c6)c(Oc6cnc7[nH]cc(F)c7c6)c5)CC4)C3)[C@H](c3ccccc3C(C)C)C2)cc1OC [Example 127]
Measurement kind: half-life at 1 μM
Display unit: min
Obs value: 182

Compound: COc1cc(CN2CCN(C3CC4(CCN(c5ccc(C(=O)NS(=O)(=O)c6ccc(NC[C@H]7CC[C@](C)(O)CC7)c([N+](=O)[O-])c6)c(Oc6cnc7[nH]cc(F)c7c6)c5)CC4)C3)[C@H](c3ccccc3C(C)C)C2)cc2ccoc12 [Example 281]
Measurement kind: half-life at 1 μM
Display unit: min
Obs value: 564

Compound: COc1cc(CN2CCN(C3CC4(C3)CN(c3ccc(C(=O)NS(=O)(=O)c5ccc(NC[C@H]6CC[C@](C)(O)CC6)c([N+](=O)[O-])c5)c(Oc5cnc6[nH]ccc6c5)c3)C4)[C@H](c3ccccc3C(C)C)C2)ccc1C1CC1 [Example 233]
Measurement kind: half-life at 1 μM
Display unit: min
Obs value: 253

Compound: COc1cc(CN2CCN(C3CC4(C3)CN(c3ccc(C(=O)NS(=O)(=O)c5ccc(NC[C@H]6CC[C@](C)(O)CC6)c([N+](=O)[O-])c5)c(Oc5cnc6[nH]cc(F)c6c5)c3)C4)[C@H](c3ccccc3C(C)C)C2)cc2c1OCCC2 [Example 312]
Measurement kind: half-life at 1 μM
Display unit: min
Obs value: 362

Compound: CC(C)c1ccccc1C1CN(Cc2ccc(Cl)cc2)CCN1C1CC2(CCN(c3ccc(C(=O)NS(=O)(=O)c4ccc(NC[C@H]5CC[C@](C)(O)CC5)c([N+](=O)[O-])c4)c(Oc4cnc5[nH]ccc5c4)c3)CC2)C1 (stereo partly drawn) [Example 29]
Measurement kind: half-life at 1 μM
Display unit: min
Obs value: 2360

Compound: COc1ccc(CN2CCN(C3CC4(CCN(c5ccc(C(=O)NS(=O)(=O)c6ccc(NC[C@H]7CC[C@](C)(O)CC7)c([N+](=O)[O-])c6)c(Oc6cnc7[nH]ccc7c6)c5)CC4)C3)C(c3ccccc3C(C)C)C2)c(OC)c1 (stereo partly drawn) [Example 48]
Measurement kind: half-life at 1 μM
Display unit: min
Obs value: 323

Compound: COc1ccc(CN2CCN(C3CC4(CCN(c5ccc(C(=O)NS(=O)(=O)c6ccc(NC[C@H]7COCCO7)c([N+](=O)[O-])c6)c(Oc6cnc7[nH]ccc7c6)c5)CC4)C3)[C@H](c3ccccc3C(C)C)C2)cc1 (single isomer, unassigned) [Example 33]
Measurement kind: half-life at 1 μM
Display unit: min
Obs value: 233

---

- Study system: Recombinant human Bcl-2 protein (Homo sapiens (Human), UniProt P10415)
- Sequence (P10415 whole entry): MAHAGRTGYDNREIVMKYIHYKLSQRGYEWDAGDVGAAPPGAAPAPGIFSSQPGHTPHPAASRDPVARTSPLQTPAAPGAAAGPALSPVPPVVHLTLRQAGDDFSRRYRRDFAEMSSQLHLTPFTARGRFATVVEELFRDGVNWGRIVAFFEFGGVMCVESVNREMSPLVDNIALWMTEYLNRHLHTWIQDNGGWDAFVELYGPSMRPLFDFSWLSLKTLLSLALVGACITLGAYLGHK
- Test description: Bcl-2 TR-FRET Assay
- Format: binding
- Measurement context: wild type Bcl-2; unit inferred; read-out: Bcl-2 WT
IC50 strictly less than 0.1 nM = rule met. Otherwise rule not met.

Compound: COc1cc(CN2CCN(C3CC4(C3)CN(c3ccc(C(=O)NS(=O)(=O)c5ccc(NC[C@H]6CC[C@](C)(O)CC6)c([N+](=O)[O-])c5)c(Oc5cnc6[nH]cc(F)c6c5)c3)C4)[C@H](c3ccccc3C(C)C)C2)ccc1NC(C)C [Example 360]
Category label: rule not met
--
Compound: COc1ccc(N(C)C2CCN(C3CC4(CCN(c5ccc(C(=O)NS(=O)(=O)c6ccc(NC[C@H]7CC[C@](C)(O)CC7)c([N+](=O)[O-])c6)c(Oc6cnc7[nH]ccc7c6)c5)CC4)C3)C(c3ccccc3C(C)C)C2)cc1 (stereo partly shown) [Example 150]
Category label: rule not met
--
Compound: [2H]C([2H])([2H])Oc1cc(CN2CCN(C3CC4(C3)CN(c3ccc(C(=O)NS(=O)(=O)c5ccc(NC[C@H]6CC[C@](C)(O)CC6)c([N+](=O)[O-])c5)c(Oc5cnc6[nH]ccc6c5)c3)C4)[C@H](c3ccccc3C(C)C)C2)cc2c1OCC2(C)C [Example 324]
Category label: rule not met
--
Compound: COc1ccc(CN2CCN(C3CC4(CCN(c5ccc(C(=O)NS(=O)(=O)c6ccc(NC[C@H]7CC[C@](C)(O)CC7)c([N+](=O)[O-])c6)c(Oc6cnc7[nH]ccc7c6)c5)CC4)C3)C(c3ccccc3C(C)C)C2)cc1OC (stereo partly shown) [Example 81]
Category label: rule met
--
Compound: [2H]C([2H])([2H])Oc1ccc(CN2CCN(C3CC4(CCN(c5ccc(C(=O)NS(=O)(=O)c6ccc(NC[C@H]7CC[C@](C)(O)CC7)c([N+](=O)[O-])c6)c(Oc6cnc7[nH]cc(F)c7c6)c5)CC4)C3)[C@H](c3ccccc3C(C)C)C2)cc1OC([2H])([2H])[2H] [Example 198]
Category label: rule met
--
Compound: COc1ccc(CN2CCN(C3CC4(CCN(c5ccc(C(=O)NS(=O)(=O)c6ccc(OCC7CCC(C)(O)CC7)c([N+](=O)[O-])c6)c(Oc6cnc7[nH]ccc7c6)c5)CC4)C3)[C@H](c3ccccc3C(C)C)C2)cc1 (stereo partly shown) [Example 236]
Category label: rule not met
--
Compound: COc1cc(CN2CCN(C3CC4(C3)CN(c3ccc(C(=O)NS(=O)(=O)c5ccc(NC[C@H]6CC[C@](C)(O)CC6)c([N+](=O)[O-])c5)c(Oc5cnc6[nH]cc(F)c6c5)c3)C4)[C@H](c3ccccc3C(C)C)C2)ccc1N1CCOCC1 [Example 361]
Category label: rule met
--
Compound: COc1ccc(CN2CCN(C3CC4(C3)CN(c3ccc(C(=O)NS(=O)(=O)c5ccc(NC[C@H]6CC[C@](C)(O)CC6)c([N+](=O)[O-])c5)c(Oc5cnc6[nH]cc(F)c6c5)c3)C4)[C@H](c3ccccc3C(C)C)C2)cn1 [Example 215]
Category label: rule met
--
Compound: CC(C)c1ccccc1C1CN(C2COC2)CCN1C1CC2(CCN(c3ccc(C(=O)NS(=O)(=O)c4ccc(NC[C@H]5CC[C@](C)(O)CC5)c([N+](=O)[O-])c4)c(Oc4cnc5[nH]ccc5c4)c3)CC2)C1 (stereo partly shown) [Example 6]
Category label: rule met
--
Compound: CC(C)c1ccccc1C1CN(Cc2ccccc2)CCN1C1CC2(CCN(c3ccc(C(=O)NS(=O)(=O)c4ccc(NC[C@H]5CC[C@](C)(O)CC5)c([N+](=O)[O-])c4)c(Oc4cnc5[nH]ccc5c4)c3)CC2)C1 (stereo partly shown) [Example 23]
Category label: rule not met
--
Compound: COc1cc(CN2CCN(C3CC4(C3)CN(c3ccc(C(=O)NS(=O)(=O)c5ccc(NC[C@H]6CC[C@](C)(O)CC6)c([N+](=O)[O-])c5)c(Oc5cnc6[nH]cc(F)c6c5)c3)C4)[C@H](c3ccccc3C(C)C)C2)cc2cc(C)oc12 [Example 338]
Category label: rule not met
--
Compound: CC(C)c1ccccc1C1CN(Cc2ccc3c(c2)OCO3)CCN1C1CC2(CCN(c3ccc(C(=O)NS(=O)(=O)c4ccc(NC[C@H]5CC[C@](C)(O)CC5)c([N+](=O)[O-])c4)c(Oc4cnc5[nH]ccc5c4)c3)CC2)C1 (stereo partly shown) [Example 122]
Category label: rule not met
--
Compound: COc1cc(CN2CCN(C3CC4(C3)CN(c3ccc(C(=O)NS(=O)(=O)c5ccc(NC[C@H]6CC[C@](C)(O)CC6)c([N+](=O)[O-])c5)c(Oc5cnc6[nH]cc(F)c6c5)c3)C4)[C@H](c3ccccc3C(C)C)C2)ccc1OC1CC1 [Example 321]
Category label: rule not met
--
Compound: CC(C)c1ccccc1C1CN(Cc2cccc3sccc23)CCN1C1CC2(CCN(c3ccc(C(=O)NS(=O)(=O)c4ccc(NC[C@H]5CC[C@](C)(O)CC5)c([N+](=O)[O-])c4)c(Oc4cnc5[nH]ccc5c4)c3)CC2)C1 (stereo partly shown) [Example 59]
Category label: rule not met
--
Compound: COc1ccc(CN2CCN(C3CC4(CCN(c5ccc(C(=O)NS(=O)(=O)c6ccc(NCC7(F)CCC(C)(O)CC7)c([N+](=O)[O-])c6)c(Oc6cnc7[nH]ccc7c6)c5)CC4)C3)[C@H](c3ccccc3C(C)C)C2)cc1 (stereo partly shown) [Example 225]
Category label: rule met
